The following compounds are listed with their measured pIC50 values.
- TARGET OR TEST SYSTEM: CYP17 (human testicular microsome) (Homo sapiens, UniProt P05093)
- Construct: using microsomal fraction from human testis (Celsis Cat #S00110) as the enzyme source; tissue Celsis S00110; host or cells: human testis microsomal fraction
- Sequence (P05093 whole entry): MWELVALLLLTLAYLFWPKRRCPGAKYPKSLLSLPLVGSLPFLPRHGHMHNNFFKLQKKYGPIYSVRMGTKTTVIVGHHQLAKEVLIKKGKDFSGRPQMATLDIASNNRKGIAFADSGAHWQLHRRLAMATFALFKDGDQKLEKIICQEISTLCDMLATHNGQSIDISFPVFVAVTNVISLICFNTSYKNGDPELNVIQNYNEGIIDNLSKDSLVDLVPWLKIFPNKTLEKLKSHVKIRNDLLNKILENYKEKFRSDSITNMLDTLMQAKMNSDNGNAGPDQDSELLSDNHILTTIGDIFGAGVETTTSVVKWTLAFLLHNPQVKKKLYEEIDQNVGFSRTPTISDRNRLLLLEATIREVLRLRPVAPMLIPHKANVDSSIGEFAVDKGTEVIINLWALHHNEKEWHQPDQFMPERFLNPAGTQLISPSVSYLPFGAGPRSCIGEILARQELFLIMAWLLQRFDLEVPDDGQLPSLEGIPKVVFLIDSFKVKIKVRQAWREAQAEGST
- TEST: CYP17 enzymatic assay (IC50) (Biological Example 4)
- Type: biochemical
- EXPERIMENTAL CONTEXT: human testicular microsome; read-out: Biological Example No. 4: CYP17 enzymatic assay IC50
pIC50: −log10 of the molar value.
TEST READOUT: pIC50

In [3]: df
Out[3]:
                                    compound                     target_or_test_system  test_readout  measured
 0  C[C@]12CCC3C(CCC4=CC(=O)CC[C@@]43C)C1=CC=C2c1cncc(N)c1 (some centres unmarked)  CYP17 (human testicular microsome) (Homo sapiens, UniProt P05093)         pIC50    > 7.96
 1  C[C@]12CCC3C(CC(F)[C@@]4(O)C[C@@H](O)CC[C@]34C)C1CC=C2c1cccnc1 (some centres unmarked)  CYP17 (human testicular microsome) (Homo sapiens, UniProt P05093)         pIC50    > 7.96
 2  C[C@]12CC[C@H](O)CC1=CCC1C2CC[C@]2(C)C(c3cncc(F)c3)=CCC12 (some centres unmarked)  CYP17 (human testicular microsome) (Homo sapiens, UniProt P05093)         pIC50    > 7.96
 3  C[C@]12CCC3C(CCC4=CC(=O)NCC[C@@]43C)C1=CC=C2c1cncc(C(F)F)c1 (some centres unmarked)  CYP17 (human testicular microsome) (Homo sapiens, UniProt P05093)         pIC50    > 7.96
 4  CC1C[C@@H]2[C@H](CC[C@]3(C)C(c4cncc(F)c4)=CC[C@@H]23)[C@@]2(C)C=CC(=O)C=C12 (some centres unmarked)  CYP17 (human testicular microsome) (Homo sapiens, UniProt P05093)         pIC50    > 7.96
 5  C[C@]12CC[C@H]3[C@@H](CC=C4C[C@@H](O)CC[C@@]43C)C1=CC=C2c1cncc(F)c1  CYP17 (human testicular microsome) (Homo sapiens, UniProt P05093)         pIC50    > 7.96
 6  CC1=C2CC[C@@H]3[C@H](CC[C@]4(C)C(c5cccnc5)=CC[C@@H]34)[C@@]2(C)CCC1=O  CYP17 (human testicular microsome) (Homo sapiens, UniProt P05093)         pIC50    > 7.96
 7  C[C@]12CCC3C(CCC4CC(F)(F)CC[C@@]43C)C1=CC=C2c1cccnc1 (some centres unmarked)  CYP17 (human testicular microsome) (Homo sapiens, UniProt P05093)         pIC50    > 7.96
 8  CC1CC2C3=CC=C(c4cncc(N)c4)[C@@]3(C)CCC2[C@@]2(C)CCC(=O)C=C12 (some centres unmarked)  CYP17 (human testicular microsome) (Homo sapiens, UniProt P05093)         pIC50    > 7.96
 9  C[C@]12CC[C@H]3[C@@H](CC(CO)C4=CC(=O)CC[C@@]43C)C1=CC=C2c1cccnc1 (some centres unmarked)  CYP17 (human testicular microsome) (Homo sapiens, UniProt P05093)         pIC50    > 7.96
10  CC1CC2C3CC=C(c4cccnc4)[C@@]3(C)CCC2[C@@]2(C)CC[C@H](O)CC12O (some centres unmarked)  CYP17 (human testicular microsome) (Homo sapiens, UniProt P05093)         pIC50    > 7.96
11  C[C@]12CCC3C(CC(F)[C@]4(O)C[C@@H](O)CC[C@]34C)C1CC=C2c1cccnc1 (some centres unmarked)  CYP17 (human testicular microsome) (Homo sapiens, UniProt P05093)         pIC50    > 7.96
12  C[C@]12CCC(=O)C=C1C(=O)CC1C2CC[C@]2(C)C(c3cncc(F)c3)=CCC12 (some centres unmarked)  CYP17 (human testicular microsome) (Homo sapiens, UniProt P05093)         pIC50    > 7.96
13  C[C@]12CC[C@H](O)CC1=CCC1C2CC[C@]2(C)C(c3cncc(Cl)c3)=CCC12 (some centres unmarked)  CYP17 (human testicular microsome) (Homo sapiens, UniProt P05093)         pIC50    > 7.96
